Entries annotated with measured abundance fitness
B1: Lysine-specific demethylase 5C, residues 319 to 373; numbered along this chain, P41229 (parent)
chain: AQFIESYVCRMCSRGDEDDKLLLCDGCDDNYHIFCLLPPLPEIPKGVWRCPKCVM

variants of: B1; test: abundance fitness (aPCA) (normalised: wild type 0, dead -1); higher = more abundant; growth selection in yeast, the domain comes from the species named; conditions: Homo sapiens
// print number alone

| variant-descriptor | abundance fitness |
| --- | --- |
| D18C | -0.178 |

# input for lookup
Dear colleague, I am looking for the recorded abundance fitness of the following variant: A1T
-0.704
